The reported numbers originate from patent US6737383B1.

Catalogue of compounds with associated Rape plant response rating
- Test system: rape
- Assay Method Text: Test B pre/postemergence rape
- Format: in vivo, Brassica napus
- Assay Conditions: Postemergence, Rate 500 g/ha; scale of 0 to 10 where 0 is no effect and 10 is complete control
Number only, no unit.

Any idea what its Rape plant response rating is? The compound is CSCCn1c(=O)on(C(=O)N(c2ccccc2)C(C)C)c1=O [Compound 419]
0

Endpoint output: Rape plant response rating of CC(C)N(C(=O)n1oc(=O)n(CCCC(F)(F)F)c1=O)c1ccc(F)cc1 [Compound 398] . Value?
2

Value lookup for Rape plant response rating; key = CC(C)N(C(=O)n1oc(=O)n(CCC#N)c1=O)c1ccc(F)cc1F [Compound 433]
0

Value lookup for Rape plant response rating; key = COC(C)n1c(=O)on(C(=O)N(c2ccc(F)cc2)C(C)C)c1=O (stereo not shown) [Compound 439]
0

---

- Tested on: velvetleaf
- Assay Method Text: Test B pre/postemergence velvetleaf
- Type: in vivo, Abutilon theophrasti
- Assay Conditions: Postemergence, Rate 125 g/ha; scale of 0 to 10 where 0 is no effect and 10 is complete control
# key: entry, value: Velvetleaf plant response rating
Could you keep your reply to the number by itself?

Chem Smiles	Velvetleaf plant response rating
Cc1nn(C)c(Cl)c1-n1c(=O)on(C(=O)N(c2ccc(F)cc2)C(C)C)c1=O	0

If you can, please state the reported Velvetleaf plant response rating value of CC(C)N(C(=O)n1oc(=O)n(CC(F)F)c1=O)c1ccccc1 .
6

Which value of Velvetleaf plant response rating has been reported for CC[C@@H](C)n1c(=O)on(C(=O)N(c2ccc(Cl)cc2)C(C)C)c1=O in the records?
2

Value lookup for Velvetleaf plant response rating; key = CCn1c(=O)on(C(=O)N(c2ccc(F)cc2F)C(C)C)c1=O
4

---

- Tested on: wheat
- Assay Method Text: Test B pre/postemergence wheat
- Assay type: in vivo, Triticum aestivum
- Assay Conditions: Preemergence, Rate 125 g/ha; scale of 0 to 10 where 0 is no effect and 10 is complete control
Entries and their measured Plant response rating, Wheat follow.
Lab note: jot down the number only; don't add units.

The cases that follow already have their Plant response rating, Wheat on record.
Compound	Plant response rating, Wheat
CC(C)N(C(=O)n1oc(=O)n(CCCC(F)(F)F)c1=O)c1ccc(F)cc1	0
CC(C)N(C(=O)n1oc(=O)n(C(C)CCl)c1=O)c1ccccc1 (centres unmarked)	4
CC(C)N(C(=O)n1oc(=O)n(CC#N)c1=O)c1ccc(Cl)cc1	0
CC(C)N(C(=O)n1oc(=O)n(CCl)c1=O)c1ccc(Cl)cc1	0
COC(=O)C(CCO)n1c(=O)on(C(=O)N(c2ccccc2)C(C)C)c1=O (centres unmarked)	0

Value lookup for Plant response rating, Wheat; key = CC(C)N(C(=O)n1oc(=O)n(CCl)c1=O)c1ccc(F)cc1F
0

Look up Plant response rating, Wheat: CC(C)N(C(=O)n1oc(=O)n([C@@H]2C[C@H]2C)c1=O)c1ccc(F)cc1 (relative stereo)
3

Name the reported Plant response rating, Wheat value associated with the compound CC(C)N(C(=O)n1oc(=O)n(CC(F)F)c1=O)c1ccc(F)cc1F
6

---

- Test system: sugar beet
- Assay Method Text: Test B pre/postemergence sugar beet
- Format: in vivo, Beta vulgaris
- Assay Conditions: Preemergence, Rate 250 g/ha; scale 0 to 10, 0 is no effect, 10 is complete control
The reader will find reported Sugarbeets plant response rating values listed item by item below.
Lab note: jot the number down without any unit.

Recall the recorded Sugarbeets plant response rating for CC(C)N(C(=O)n1oc(=O)n(C(C)C#N)c1=O)c1ccc(Cl)cc1 (centres unmarked) with sugar beet and state it.
0

Recall the recorded Sugarbeets plant response rating for CCOC(=O)Cn1c(=O)on(C(=O)N(c2ccc(F)cc2)C(C)C)c1=O with sugar beet and state it.
0

Provide the documented Sugarbeets plant response rating with sugar beet as the system for CC(C)N(C(=O)n1oc(=O)n(CC2=NOCCC2)c1=O)c1ccccc1
0

Request body: readout Sugarbeets plant response rating, system sugar beet, query C=C(C)Cn1c(=O)on(C(=O)N(c2ccc(F)cc2)C(C)C)c1=O . Return the value.
4

Form entry - test system: sugar beet; read-out: Sugarbeets plant response rating; compound: CC(C)N(C(=O)n1oc(=O)n(CC#N)c1=O)c1ccc(Cl)cc1
0

What measured Sugarbeets plant response rating is associated with COC(C)n1c(=O)on(C(=O)N(c2ccc(F)cc2)C(C)C)c1=O (centres unmarked) on sugar beet?
0

Quick check: Sugarbeets plant response rating on sugar beet, item CC(C)N(C(=O)n1oc(=O)n(CCl)c1=O)c1ccc(F)cc1F ?
0

Param readout = Sugarbeets plant response rating; param system = sugar beet; param query = CC(C)N(C(=O)n1oc(=O)n(CCCl)c1=O)c1ccc(F)cc1 ; response: value
8
